Hello, the source for this data is patent US4822606A, in case you need it.

- Tested on: human monocytes
- assay_info: Monocyte superoxide anion (O2^-) release
- Format: cell-based
- assay_setup: WGA stimulated; peptide coupled to BSA; dilution 1:40; mean ± SE
Ends that are not written are not given here.
endpoint_label: O2^- Release

query: Recall the reported O2^- Release of LQNRRGLDLLFLKEGGL [CKS-17] on human monocytes and write it down.
result: 8.3 ± 0.5 nmoles/5 minues/1.2 × 10^6 mon
